Below is a list of entries, each paired with its recorded growth inhibition value.
assay: NCI Yeast Anticancer Drug Screen. Data for the mec2-1 strain (AID 157); conditions: S. cerevisiae mec2-1 strain, at 50.0 µM, hits give high values
Compounds without any hit were thinned out: in the full panel of roughly 79,000, 15% have a hit.
outcome measure: growth inhibition (%)

{"compound": "C[n+]1c[se]cn1", "display unit": "%", "meas value": 9.25}
{"compound": "ClCCN(CCCl)c1ccc(C2=Nc3cccc4cccc(c34)N2)cc1", "display unit": "%", "meas value": 9.8}
{"compound": "N[C@H](Cc1ccc2oc3cc(=O)c4ccccc4c-3nc2c1)C(=O)O", "display unit": "%", "meas value": 33.4}
{"compound": "O=Cc1ccccc1O.[Pr]", "display unit": "%", "meas value": -24.4}
{"compound": "COC(=O)N/N=C(\\C)C(CN(C)C)C(c1ccccc1)c1c(O)c2ccccc2oc1=O (stereo not given)", "display unit": "%", "meas value": 28.9}
{"compound": "CN(C(=O)Oc1ccccc1)c1ccc(S(=O)(=O)F)cc1", "display unit": "%", "meas value": 98.7}
{"compound": "CNC(C)(C)Cc1ccc(Cl)cc1", "display unit": "%", "meas value": 10.8}
{"compound": "O=C=Nc1ccccc1Cl", "display unit": "%", "meas value": 3.1}
{"compound": "C[N+](C)(C)CC1CCCc2ccccc2C1=O (stereo not given)", "display unit": "%", "meas value": 85.9}
{"compound": "CCCCCCCCCCCCCCCCCCC[As](=O)(O)CCCCCCCCCCCCCCCCCCC", "display unit": "%", "meas value": 19.2}
{"compound": "COc1ccc([As+](c2ccccc2)(c2ccccc2)c2ccccc2)cc1", "display unit": "%", "meas value": 98.8}
{"compound": "COc1cc(C(c2c(O)c3ccccc3oc2=O)c2c(O)c3ccccc3oc2=O)cc(OC)c1OC", "display unit": "%", "meas value": -8.15}
{"compound": "Cc1ccc(C(C)(C)C)c(OP(=S)(S)Oc2cc(C)ccc2C(C)(C)C)c1.[Pb]", "display unit": "%", "meas value": -1.85}
{"compound": "O=C(O)CC(=O)O.[Co+2].[NH-]CC(=O)O.[NH-]CC(=O)O", "display unit": "%", "meas value": -6.65}
{"compound": "C/C(=N\\N=C(N)N)C(CN1CCCCC1)C(c1ccccc1)c1c(O)c2ccccc2oc1=O (stereo not given)", "display unit": "%", "meas value": -2.6}
{"compound": "O=C1C=C(N2CC2)C(=O)C(N2CC2)=C1N1CC1", "display unit": "%", "meas value": 99.2}
{"compound": "CC1=C/C(=N\\[Se]c2ccccc2)C(=O)C(C)=C1", "display unit": "%", "meas value": 27.4}
{"compound": "CCCCC1CN1C(=N)OCC (stereo not given)", "display unit": "%", "meas value": -0.6}
{"compound": "O=C(Nc1cc(S(=O)(=O)F)ccc1Cl)Oc1ccc([N+](=O)[O-])cc1", "display unit": "%", "meas value": 53.2}
{"compound": "O=[N+]([O-])c1cc(-c2ccc([As](=O)(O)O)cc2)ccc1[As](=O)(O)O", "display unit": "%", "meas value": 4.4}
{"compound": "CC[n+]1c(/C=C/c2ccc(N(CCCl)CCCl)cc2)ccc2cc(Br)ccc21", "display unit": "%", "meas value": 84}
{"compound": "CC(C)(O)C1=CC23CC(C)(C(=O)O)C4CCCCC4(C)C2CC1OO3 (stereo not given)", "display unit": "%", "meas value": -7.3}
{"compound": "O=C(NP(=O)(N1CC1)N1CC1)c1cc(I)ccc1I", "display unit": "%", "meas value": -1.7}
{"compound": "CCOC(=O)C(Br)C(C)Br (stereo not given)", "display unit": "%", "meas value": -39.5}
{"compound": "O=C(NC1CC1)c1c(O)[nH]c(=S)[nH]c1=O", "display unit": "%", "meas value": -8.2}
{"compound": "CSCC(NP1(=O)SC(NN=C2CCCCC2)=NC1(C)C)C(=O)O (stereo not given)", "display unit": "%", "meas value": 3.95}
{"compound": "CC[PH+](CC)CC.[Cl][Au]", "display unit": "%", "meas value": 91.4}
{"compound": "c1cc2c3c(cccc3c1)CC2", "display unit": "%", "meas value": 35.4}
{"compound": "CC(=O)OC[C@]12C[C@H](OC(=O)CC(C)C)C(C)=C[C@H]1O[C@@H]1[C@H](O)[C@@H](O)[C@@]2(C)[C@@]12CO2", "display unit": "%", "meas value": 83}
{"compound": "O=C([CH-]C(=O)c1ccccc1)c1ccccc1.O=C([CH-]C(=O)c1ccccc1)c1ccccc1.O=C([CH-]C(=O)c1ccccc1)c1ccccc1.[Nd+3].[OH3+]", "display unit": "%", "meas value": 93.8}
{"compound": "CC1=CC(=O)NP(=O)(Oc2ccc(C)cc2)N1 (stereo not given)", "display unit": "%", "meas value": 16.1}
{"compound": "CCc1ccccc1C(C(=O)NC1CN2CCC1CC2)c1ccsc1 (stereo not given)", "display unit": "%", "meas value": -28.8}
{"compound": "CC1([N+](=O)[O-])COP(=O)(OP2(=O)OCC(C)([N+](=O)[O-])CO2)OC1 (stereo not given)", "display unit": "%", "meas value": 10.2}
{"compound": "CO[C@H]1Nc2c(ccc(C)c2O)C(=O)N2C=C(/C=C/C(N)=O)C[C@@H]12", "display unit": "%", "meas value": 91.5}
{"compound": "C[SH+]c1ccccc1N=Cc1ccccn1.C[SH+]c1ccccc1N=Cc1ccccn1.[Ni+2].[O-][Cl+3]([O-])([O-])[O-]", "display unit": "%", "meas value": 97.2}
{"compound": "O=C(CN1CCOCC1)c1ccc2ccccc2c1", "display unit": "%", "meas value": 2.05}
{"compound": "CC1(C)COP(=O)(c2ccccc2)N1 (stereo not given)", "display unit": "%", "meas value": -21.4}
{"compound": "Cc1sc2cccc[n+]2c1C", "display unit": "%", "meas value": -12.9}
{"compound": "C[N+](C)(C)NP(=O)(N[N+](C)(C)C)c1ccccc1", "display unit": "%", "meas value": -8.15}
{"compound": "CN(C1CCCCC1)C1CCCCC1", "display unit": "%", "meas value": -2.05}
